- Test system: Staphylococcus sp.
- PROTOCOL DETAILS: In vitro antibacterial evaluation: minimum inhibitory concentration (MIC), broth dilution method
- Assay type: cell-based
- STUDY CONDITIONS: broth dilution, 5×10^5 CFU/mL, 18 hours at 35° C.
EXPERIMENTAL ENDPOINT: MIC Staphylococcus aureus (GC 4545) (mg/L)
Write the answer as a number in mg/L, unit excluded.

Item: CC(c1ccccc1)C1NC(=O)CNC(=O)C(CO)NC(=O)C(C(O)C2CNC(=N)N2C2OC(CO)C(O)C(O)C2O)NC(=O)C(C(O)C2CNC(=N)N2)NC(=O)C(Cc2ccc(OC3OC(CO)C(OC4OC5COC(c6ccc7c(c6)OCCO7)OC5C(O)C4O)C(O)C3O)cc2)NC1=O (centres unmarked) [Example 149] Test system: Staphylococcus sp. Read-out: MIC Staphylococcus aureus (GC 4545) Value: ? 2
